Reported pIC50 values are given for each entry in this list.
Target: STAT3 (Homo sapiens, UniProt P40763)
Construct: Recombinant STAT3 protein (STAT3(G127-I722))
Sequence (P40763 127-722): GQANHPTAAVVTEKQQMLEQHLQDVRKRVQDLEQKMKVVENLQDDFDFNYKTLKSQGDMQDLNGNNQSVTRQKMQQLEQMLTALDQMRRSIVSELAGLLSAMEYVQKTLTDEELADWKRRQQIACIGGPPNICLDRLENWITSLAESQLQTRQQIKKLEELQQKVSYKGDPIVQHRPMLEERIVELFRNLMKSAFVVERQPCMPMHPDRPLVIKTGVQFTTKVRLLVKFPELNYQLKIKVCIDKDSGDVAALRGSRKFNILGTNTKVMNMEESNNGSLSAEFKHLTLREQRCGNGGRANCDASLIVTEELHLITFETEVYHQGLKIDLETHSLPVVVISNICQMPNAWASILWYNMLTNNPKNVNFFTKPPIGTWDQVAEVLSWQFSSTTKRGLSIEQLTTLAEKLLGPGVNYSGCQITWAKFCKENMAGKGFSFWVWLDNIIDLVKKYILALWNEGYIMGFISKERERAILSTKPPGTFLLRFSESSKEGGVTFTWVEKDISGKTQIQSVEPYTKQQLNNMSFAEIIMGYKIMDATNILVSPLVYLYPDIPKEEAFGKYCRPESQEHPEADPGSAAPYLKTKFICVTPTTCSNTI
Assay: STAT3 Fluorescence Polarization (FP) Assay
pIC50: −log10 of the molar value.

- compound: "O=C1CCC(N2Cc3c(OCCOCCOCCn4ccc([C@@H]5CN(C(=O)[C@@H]6CC[C@@H]7CCCC[C@H](NC(=O)c8cc9cc(C(F)(F)P(=O)(O)O)ccc9s8)C(=O)N76)C6(CC6)C5)cc4=O)cccc3C2=O)C(=O)N1 (stereo partly shown)"
  pIC50: "5.00 to 6.00"
- compound: "N#CC1CN(C(=O)C2CCC3CCCCC(NC(=O)c4cc5cc(C(F)(F)P(=O)(O)O)ccc5s4)C(=O)N32)CC1c1cccc(N2CCN(c3ccc4c(c3)[nH]c(=O)n4C3CCC(=O)NC3=O)CC2)c1 (stereo not shown)"
  pIC50: "6.00 to 7.00"
- compound: "N#C[C@@H]1CN(C(=O)[C@@H]2CC[C@@H]3CCCC[C@H](NC(=O)c4cc5cc(C(F)(F)P(=O)(O)O)ccc5s4)C(=O)N32)C[C@H]1c1cccc(OCCCCOc2ccc(C3CCC(=O)NC3=O)cc2)c1 (mixture of isomers)"
  pIC50: "6.00 to 7.00"
- compound: "O=C1CCC(c2ccc(OCCCCCn3ccc([C@@H]4CN(C(=O)[C@@H]5CC[C@@H]6CCCC[C@H](NC(=O)c7cc8cc(C(F)(F)P(=O)(O)O)ccc8s7)C(=O)N65)C5(CC5)C4)cc3=O)cc2)C(=O)N1 (stereo partly shown)"
  pIC50: "5.00 to 6.00"

====

Molecular target: STAT3 (Homo sapiens)
Construct: Recombinant STAT3 protein (STAT3(G127-I722))
Test: STAT3 Fluorescence Polarization (FP) Assay
Reported IC50 values are given for each entry in this list.
endpoint.name: IC50

- compound: "Cc1ncsc1-c1ccc([C@H](C)NC(=O)[C@@H]2C[C@@H](O)CN2C(=O)[C@@H](NC(=O)COCCOCCC(=O)NC2(c3ccccn3)CN(C(=O)[C@@H]3CC[C@H]4CCCC[C@H](NC(=O)c5cc6cc(C(F)(F)P(=O)(O)O)ccc6s5)C(=O)N43)C2)C(C)(C)C)cc1"
  endpoint.name: "IC50"
  reported.value: "< 100 nM"
- compound: "Cn1c(=O)n(C2CCC(=O)NC2=O)c2ccc(C#CCCC3CCN(c4ccncc4C4CN(C(=O)[C@@H]5CC[C@@H]6CCC[C@H](NC(=O)c7cc8cc([C@@H](F)P(=O)(O)O)ccc8s7)C(=O)N65)C4)CC3)cc21 (some centres unmarked)"
  endpoint.name: "IC50"
  reported.value: "< 100 nM"
- compound: "O=C1CCC(c2ccc(OCC(=O)N3CCN(c4ccncc4C4CN(C(=O)[C@@H]5CC[C@@H]6CCC[C@H](NC(=O)c7cc8cc(C(F)(F)P(=O)(O)O)ccc8s7)C(=O)N65)C4)CC3)cc2)C(=O)N1 (some centres unmarked)"
  endpoint.name: "IC50"
  reported.value: "< 100 nM"
- compound: "N#CC1CN(C(=O)C2CCC3CCCCC(NC(=O)c4cc5cc(C(F)(F)P(=O)(O)O)ccc5s4)C(=O)N32)CC1c1cccc(OCCOCCOc2cccc3c2CN(C2CCC(=O)NC2=O)C3=O)c1 (centres unmarked)"
  endpoint.name: "IC50"
  reported.value: "100 to 1000 nM"
- compound: "Cn1c(=O)n(C2CCC(=O)NC2=O)c2ccc(C#CCCC3CCN(c4ccncc4C4CN(C(=O)[C@@H]5CC[C@@H]6CCC[C@H](NC(=O)c7cc8cc([C@H](F)P(=O)(O)O)ccc8s7)C(=O)N65)C4)CC3)cc21 (some centres unmarked)"
  endpoint.name: "IC50"
  reported.value: "< 100 nM"
